measurement.setup: in n-butyl acetate, 283.16 K
property.name: solubility (mole fraction)
// response body must contain only the number

Which solubility (mole fraction) value is on record for Clc1ccccc1C(c1ccccc1)(c1ccccc1)n1ccnc1 ?
0.00743

* * *

measurement.setup: in n-pentanol, 318.14 K
property.name: solubility (mole fraction)
A bare number is all that is needed in reply.

Param item = Clc1ccccc1C(c1ccccc1)(c1ccccc1)n1ccnc1 ; retrieve measured solubility (mole fraction).
0.0707

* * *

measurement.setup: in n-butanol, 293.15 K
property.name: solubility (mole fraction)
Lab note: record just the number, no unit beside it.

What value of solubility (mole fraction) has been reported for the following compound? Clc1ccccc1C(c1ccccc1)(c1ccccc1)n1ccnc1
0.0235

* * *

measurement.setup: in n-heptanol, 308.15 K
property.name: solubility (mole fraction)

Which solubility (mole fraction) reading was recorded for the compound Clc1ccccc1C(c1ccccc1)(c1ccccc1)n1ccnc1 ?
0.039

* * *

measurement.setup: in n-butyl acetate, 318.15 K
property.name: solubility (mole fraction)
Lab note: record just the number, no unit beside it.

// lookup solubility (mole fraction) for Clc1ccccc1C(c1ccccc1)(c1ccccc1)n1ccnc1
0.0251

* * *

measurement.setup: in sec-butanol, 288.16 K
property.name: solubility (mole fraction)
Just the number.

Reported solubility (mole fraction), molecule Clc1ccccc1C(c1ccccc1)(c1ccccc1)n1ccnc1 : ____
0.013

* * *

measurement.setup: in n-hexanol, 303.19 K
property.name: solubility (mole fraction)
Field format: numeric only.

What does the data say about its solubility (mole fraction)? Entry: Clc1ccccc1C(c1ccccc1)(c1ccccc1)n1ccnc1
0.0356

* * *

measurement.setup: in methyl propionate, 323.15 K
property.name: solubility (mole fraction)
Enter a number only.

solubility (mole fraction) lookup needed for Clc1ccccc1C(c1ccccc1)(c1ccccc1)n1ccnc1 , thanks.
0.0373

* * *

measurement.setup: in isobutanol, 313.15 K
property.name: solubility (mole fraction)
Reply with the value as a number alone.

Quick check: solubility (mole fraction) of Clc1ccccc1C(c1ccccc1)(c1ccccc1)n1ccnc1 ?
0.0589

* * *

measurement.setup: in sec-butanol, 313.19 K
property.name: solubility (mole fraction)
Output spec: single numeric token, no unit.

Given Clc1ccccc1C(c1ccccc1)(c1ccccc1)n1ccnc1 , state its recorded solubility (mole fraction).
0.0425

* * *

measurement.setup: in isopropanol, 293.13 K
property.name: solubility (mole fraction)
Respond numerically, and do not add a unit to the figure.

Form field: reported solubility (mole fraction) of Clc1ccccc1C(c1ccccc1)(c1ccccc1)n1ccnc1
0.00916

* * *

measurement.setup: in isopentanol, 308.18 K
property.name: solubility (mole fraction)
Just the number, please.

Which measured solubility (mole fraction) value corresponds to Clc1ccccc1C(c1ccccc1)(c1ccccc1)n1ccnc1 ?
0.045

* * *

measurement.setup: in ethyl acetate, 308.18 K
property.name: solubility (mole fraction)
Write the value as a bare number.

Please report the recorded solubility (mole fraction) for Clc1ccccc1C(c1ccccc1)(c1ccccc1)n1ccnc1 .
0.0168

* * *

measurement.setup: in isobutanol, 288.15 K
property.name: solubility (mole fraction)
Please reply with the value in numeric form only.

I am curious: what solubility (mole fraction) value has been reported for Clc1ccccc1C(c1ccccc1)(c1ccccc1)n1ccnc1 ?
0.0202

* * *

measurement.setup: in n-hexanol, 313.1 K
property.name: solubility (mole fraction)
Please give the numeric answer without any surrounding text.

Bench note: what solubility (mole fraction) did Clc1ccccc1C(c1ccccc1)(c1ccccc1)n1ccnc1 show?
0.053

* * *

measurement.setup: in n-butanol, 313.15 K
property.name: solubility (mole fraction)
// response body must contain only the number

Please report the recorded solubility (mole fraction) for Clc1ccccc1C(c1ccccc1)(c1ccccc1)n1ccnc1 .
0.0538

* * *

measurement.setup: in n-propyl acetate, 293.19 K
property.name: solubility (mole fraction)
Returns: the value as a bare number; no unit string appended.

Recorded solubility (mole fraction) of Clc1ccccc1C(c1ccccc1)(c1ccccc1)n1ccnc1 , please.
0.0112

* * *

measurement.setup: in isopropanol, 303.12 K
property.name: solubility (mole fraction)
A bare number is all that is needed in reply.

Which solubility (mole fraction) value is on record for Clc1ccccc1C(c1ccccc1)(c1ccccc1)n1ccnc1 ?
0.0145

* * *

measurement.setup: in isopentanol, 313.12 K
property.name: solubility (mole fraction)
# answer = number (no unit)

Record request: solubility (mole fraction) value, item Clc1ccccc1C(c1ccccc1)(c1ccccc1)n1ccnc1
0.0548

* * *

measurement.setup: in methyl propionate, 283.13 K
property.name: solubility (mole fraction)
Just the number, please, no unit attached.

So what's the measured solubility (mole fraction) for this one? Clc1ccccc1C(c1ccccc1)(c1ccccc1)n1ccnc1
0.00984

* * *

measurement.setup: in methyl acetate, 313.12 K
property.name: solubility (mole fraction)
Give only the figure.

Value lookup for solubility (mole fraction); key = Clc1ccccc1C(c1ccccc1)(c1ccccc1)n1ccnc1
0.0196

* * *

measurement.setup: in n-hexanol, 283.08 K
property.name: solubility (mole fraction)
A bare number is all that is needed in reply.

// lookup solubility (mole fraction) for Clc1ccccc1C(c1ccccc1)(c1ccccc1)n1ccnc1
0.0145

* * *

measurement.setup: in sec-butanol, 323.14 K
property.name: solubility (mole fraction)
Please reply with the number alone, leaving off any unit.

Reported solubility (mole fraction) for Clc1ccccc1C(c1ccccc1)(c1ccccc1)n1ccnc1 : what is it?
0.0657

* * *

measurement.setup: in isobutanol, 318.14 K
property.name: solubility (mole fraction)
Please respond with just the number, no unit label.

Look up solubility (mole fraction): Clc1ccccc1C(c1ccccc1)(c1ccccc1)n1ccnc1
0.0722

* * *

measurement.setup: in ethyl acetate, 303.14 K
property.name: solubility (mole fraction)
Give only the figure.

// query solubility (mole fraction) value for entry Clc1ccccc1C(c1ccccc1)(c1ccccc1)n1ccnc1
0.0142

* * *

measurement.setup: in isobutanol, 298.17 K
property.name: solubility (mole fraction)
Answer with a bare number; do not write a unit.

For the molecule Clc1ccccc1C(c1ccccc1)(c1ccccc1)n1ccnc1 , what solubility (mole fraction) is on record?
0.0311

* * *

measurement.setup: in methyl propionate, 293.21 K
property.name: solubility (mole fraction)
Just the number, please, no unit attached.

Reported solubility (mole fraction), molecule Clc1ccccc1C(c1ccccc1)(c1ccccc1)n1ccnc1 : ____
0.0138

* * *

measurement.setup: in n-octanol, 288.15 K
property.name: solubility (mole fraction)
In your answer, state the number alone without any accompanying words.

Name the recorded solubility (mole fraction) for Clc1ccccc1C(c1ccccc1)(c1ccccc1)n1ccnc1 .
0.0159

* * *

measurement.setup: in n-octanol, 298.19 K
property.name: solubility (mole fraction)
Answer field: number only, no words.

What does the data say about its solubility (mole fraction)? Entry: Clc1ccccc1C(c1ccccc1)(c1ccccc1)n1ccnc1
0.0247

* * *

measurement.setup: in methyl propionate, 288.17 K
property.name: solubility (mole fraction)

Which solubility (mole fraction) is listed for Clc1ccccc1C(c1ccccc1)(c1ccccc1)n1ccnc1 ?
0.0117

* * *

measurement.setup: in n-heptanol, 323.16 K
property.name: solubility (mole fraction)

For Clc1ccccc1C(c1ccccc1)(c1ccccc1)n1ccnc1 , what is its reported solubility (mole fraction)?
0.0695

* * *

measurement.setup: in methyl acetate, 308.16 K
property.name: solubility (mole fraction)
# respond with the number and nothing more

What value of solubility (mole fraction) has been recorded for this entry: Clc1ccccc1C(c1ccccc1)(c1ccccc1)n1ccnc1
0.0164

* * *

measurement.setup: in sec-butanol, 318.11 K
property.name: solubility (mole fraction)
Respond numerically, and do not add a unit to the figure.

If you can, please state the reported solubility (mole fraction) value of Clc1ccccc1C(c1ccccc1)(c1ccccc1)n1ccnc1 .
0.0532

* * *

measurement.setup: in sec-butanol, 303.13 K
property.name: solubility (mole fraction)
The answer should be written as a number, with no unit following it.

Consider the molecule Clc1ccccc1C(c1ccccc1)(c1ccccc1)n1ccnc1 and give its measured solubility (mole fraction).
0.0267

* * *

measurement.setup: in n-propanol, 318.17 K
property.name: solubility (mole fraction)

Please look up its solubility (mole fraction): Clc1ccccc1C(c1ccccc1)(c1ccccc1)n1ccnc1
0.0618

* * *

measurement.setup: in n-propanol, 313.11 K
property.name: solubility (mole fraction)
The answer should be written as a number, with no unit following it.

Could you tell me which solubility (mole fraction) is on file for Clc1ccccc1C(c1ccccc1)(c1ccccc1)n1ccnc1 ?
0.05

* * *

measurement.setup: in ethyl acetate, 288.17 K
property.name: solubility (mole fraction)
Form rule: numeric answer, no unit written next to it.

Entry under review: Clc1ccccc1C(c1ccccc1)(c1ccccc1)n1ccnc1 . Reported solubility (mole fraction)?
0.00838

* * *

measurement.setup: in n-propyl acetate, 318.15 K
property.name: solubility (mole fraction)
Answer as a number with no unit attached.

State the recorded solubility (mole fraction) for this entry: Clc1ccccc1C(c1ccccc1)(c1ccccc1)n1ccnc1
0.0257
